molecular target: DNA dC->dU-editing enzyme APOBEC-3G (Homo sapiens) (UniProt Q9HC16); assay: qHTS for inhibitors of Vif-A3G interactions: Validation (AID 588379); settings: Vif-A3G protein interaction assay; series mostly up to 46.1 µM
Sequence (Q9HC16 whole entry, looked up): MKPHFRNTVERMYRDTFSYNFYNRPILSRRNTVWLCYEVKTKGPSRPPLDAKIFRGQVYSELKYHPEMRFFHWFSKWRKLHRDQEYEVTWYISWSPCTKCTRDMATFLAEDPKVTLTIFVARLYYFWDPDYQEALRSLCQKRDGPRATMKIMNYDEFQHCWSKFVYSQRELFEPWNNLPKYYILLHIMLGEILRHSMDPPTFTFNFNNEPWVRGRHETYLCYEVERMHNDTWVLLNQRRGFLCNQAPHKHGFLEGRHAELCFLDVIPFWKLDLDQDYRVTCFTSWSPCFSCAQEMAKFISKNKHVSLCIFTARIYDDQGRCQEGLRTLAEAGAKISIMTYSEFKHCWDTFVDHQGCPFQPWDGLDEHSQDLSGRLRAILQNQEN
Calls of active or inactive are those of the source. Calls come from the whole dose curve; as a rule, active = well fitted inhibition curve with a large enough effect; inconclusive = small, poorly fitted or top-dose-only effect; inactive = flat fitted curve, though single readings scatter.
Give your call using only these classes: 1 (active), -1 (inactive)

Name the outcome recorded for COc1ccccc1N1CCN(CCCCN2C(=O)c3ccccc3C2=O)CC1 in the assay. -1

And what about the compound NCCS(=O)O ? -1

Consider next the compound CN[C@H](CC(=O)O)C(=O)O in the same way. -1

Moving on to the next compound: O=[N+]([O-])c1cccc2c(Br)[nH]nc12 -1

Now this one: O=C1Nc2ccc(I)cc2/C1=C/c1cc(Br)c(O)c(Br)c1 1

Also check CC(=O)NNC(=O)N1Cc2ccccc2Oc2ccc(Cl)cc21 -1

What about this compound? CN1CCN(c2nc3cc(C(F)(F)F)ccc3n3cccc23)CC1 -1

What do you get for Cc1cccc(C(=O)NCN2CCN(c3ccccc3C#N)CC2)c1 ? -1

Next up: CCSC(=N)N -1

// query: Cc1nc(N=Nc2cc(S(=O)(=O)O)c3cc([N+](=O)[O-])cc(S(=O)(=O)O)c3c2)c(COP(=O)(O)O)c(C=O)c1O -1

Next record, please: Cn1cc(C(=O)OCC2CCN(CCNS(C)(=O)=O)CC2)c2ccccc21 -1

Same thing, different compound: CNC(=O)c1cc2c(cn1)[nH]c1ccccc12 -1

---

molecular target: Tumor susceptibility gene 101 protein (Homo sapiens) (UniProt Q99816); assay: qHTS Validation Assay for Iinhibitors of HIV-1 Budding by Blocking the Interaction of PTAP/TSG101 (AID 485342); details: TSG101-PTAP binding, fluorescence polarization, 4-point titration; series mostly up to 115 µM; note: 0% is about no effect
Sequence (Q99816 whole entry, looked up): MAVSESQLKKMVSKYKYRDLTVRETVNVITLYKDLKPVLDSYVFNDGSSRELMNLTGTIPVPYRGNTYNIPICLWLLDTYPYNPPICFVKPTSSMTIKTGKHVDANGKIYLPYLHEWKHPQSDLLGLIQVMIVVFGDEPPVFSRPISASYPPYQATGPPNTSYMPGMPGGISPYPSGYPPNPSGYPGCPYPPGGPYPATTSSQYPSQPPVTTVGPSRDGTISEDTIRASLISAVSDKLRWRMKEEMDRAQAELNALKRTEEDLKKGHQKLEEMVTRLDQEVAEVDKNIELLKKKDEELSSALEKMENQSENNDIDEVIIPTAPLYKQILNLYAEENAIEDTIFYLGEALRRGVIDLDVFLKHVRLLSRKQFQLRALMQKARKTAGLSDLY
Active and inactive are the calls of the source. Calls come from the whole dose curve.
PROPERTY NAME: outcome

Answered examples (5):
CCCCCCC(=O)OC1CC(C)(C)NC(C)(C)C1    inactive
CC(C)NC[C@H](O)COc1ccc(CC(N)=O)cc1    inactive
N[C@H]1CONC1=O    inactive
CC[C@H](NC(=O)c1c(C)c(-c2ccccc2)nc2ccccc12)c1ccccc1    inactive
c1ccc(C(NCc2cccnc2)(c2ccccc2)c2ccccc2)cc1    inactive

What value of outcome has been recorded for this entry: CCN(CC)CCOC(=O)c1cc(Cl)c(N)cc1OC inactive

Moving on to NCCNS(=O)(=O)c1cccc2c(Cl)cccc12 inactive

Lookup [Li+] inactive

One more compound: OCC1NCC(O)C(O)C1O (stereo not given) inactive

---

biological target: Endonuclease 4 (Escherichia coli (strain K12)); experiment: Counterscreen for APE1 Inhibitors: qHTS Validation Assay for Inhibitors of Endonuclease IV (AID 1708); settings: E. coli endonuclease IV, DNA cleavage fluorescence; series mostly up to 57.1 µM
Results filed as inconclusive are left out. Active and inactive are the calls of the source. Calls come from the whole dose curve; as a rule, active = well fitted inhibition curve with a large enough effect; inconclusive = small, poorly fitted or top-dose-only effect; inactive = no such curve, though single readings can be large or run the other way.
PROPERTY NAME: outcome

Cc1nc2c(OCc3ccccc3)cccn2c1CC#N    inactive
CC(=O)NCCc1c[nH]c2ccc(O)cc12    inactive
O=C(O)c1ccccc1Nc1ccccc1    inactive
C[C@H](O)C(=O)C1=Nc2c(nc(N)[nH]c2=O)NC1    inactive
CC#CCOC(=O)c1c(C)nc2sc3c(c2c1N)CCC(O)C3 (stereo unspecified)    inactive

Now for the compound whose outcome we want.
Query the reported outcome for Endonuclease 4 (Escherichia coli (strain K12)); item: O=C(O)/C(=C/c1c(C(=O)O)[nH]c2cc(Cl)cc(Cl)c12)c1ccccc1 inactive
